Parameter: T/C. Scope: all listed entries.
- Tested on: BDF1 mice, P388 leukemia ip, median survival T/C
- EXPERIMENTAL PROTOCOL: NCI In Vivo Anticancer Drug Screen. Data for tumor model P388 Leukemia (intraperitoneal) in B6D2F1 (BDF1) mice
- COND: endpoint: median survival time; dose: 100.0 mg/kg/injection; schedule: Q04DX002 (ip); vehicle: saline with Tween-80; higher = longer survival
Inconclusive results and toxic doses are left out.

In [3]: df
Out[3]:
                                   compound   endpoint_result
0  O=c1c2ccccc2[nH]c2c([N+](=O)[O-])ccc(Oc3cccc(C(F)(F)F)c3)c12   90 % of control
1     CSc1nnc(/C=C/c2ccc3c(c2)OCO3)c(=O)n1N  106 % of control
2       CC1CC2CCCCN2O1 (stereo unspecified)  102 % of control
3  Cc1ccc2c(c1O)NC(=O)C1CCCN1C2=O (stereo unspecified)   99 % of control
4  COc1ccc(OC)c2c1C(SC)C(=O)N2C (stereo unspecified)  100 % of control

I would be grateful if you could share the reported T/C for COC(=O)C(C(=O)OC)=C1CS(=O)(=O)C1 .
94 % of control

---

- Test system: BDF1 mice, P388 leukemia ip, median survival T/C
- EXPERIMENTAL PROTOCOL: NCI In Vivo Anticancer Drug Screen. Data for tumor model P388 Leukemia (intraperitoneal) in B6D2F1 (BDF1) mice
- COND: endpoint: median survival time; dose: 400.0 mg/kg/injection; schedule: Q01DX009 (ip); vehicle: saline with Tween-80; higher = longer survival
Toxic doses and inconclusive results are not listed.
Parameter: T/C. Scope: all listed entries.

Some solved entries appear below for comparison.
>>> print(df.to_string())
                               entry_smiles   endpoint_result
0        CNC(=S)N/N=C/c1ccc([N+](=O)[O-])s1   94 % of control
1  [Cl][Pt+2]([Cl])([Cl])[Cl].[Na+].[S-]c1ncnc2nc[nH]c12.[S-]c1ncnc2nc[nH]c12  112 % of control

Could you now look at the following compound, please?
Find the recorded T/C belonging to CCCCCCCCSP(=S)(N1CC1)N1CC1 and report it.
95 % of control

---

- System: BDF1 mice, P388 leukemia ip, median survival T/C
- EXPERIMENTAL PROTOCOL: NCI In Vivo Anticancer Drug Screen. Data for tumor model P388 Leukemia (intraperitoneal) in B6D2F1 (BDF1) mice
- COND: endpoint: median survival time; dose: 400.0 mg/kg/injection; schedule: Q01DX009 (ip); vehicle: Klucel (hydroxypropylcellulose) (HPC); higher = longer survival
Inconclusive results and toxic doses are left out.
READOUT LABEL: T/C

Some solved entries appear below for comparison.
                                 compound   endpoint_result
0                COC(=O)C(NC(C)=O)C(=O)OC   88 % of control
1                       CC(=O)c1cccc(N)c1   95 % of control
2  O=C(Cc1ccccc1)OCC#CC#CCOC(=O)Cc1ccccc1  100 % of control
3  CCOC(=O)c1cc(C(=O)OCC)c(C#N)c(=O)[nH]1   92 % of control
4                  CCCn1c2ccccc2c2ccccc21   95 % of control
5               CCCCC(=O)c1cc(OC)cc(OC)c1   91 % of control

What value of T/C has been reported for the following compound? COC(=O)c1cc(C)c(Br)c(N)c1
100 % of control

---

- System: BDF1 mice, P388 leukemia ip, median survival T/C
- EXPERIMENTAL PROTOCOL: NCI In Vivo Anticancer Drug Screen. Data for tumor model P388 Leukemia (intraperitoneal) in B6D2F1 (BDF1) mice
- COND: endpoint: median survival time; dose: 10.0 mg/kg/injection; schedule: Q01DX010 (ip); vehicle: saline
Inconclusive results and toxic doses are left out. How the source made its calls: active means survival T/C of 150% or more; inactive means T/C below 125% in these data.
Write down the outcome that applies. Available outcomes: yes (1) (active), no (0) (inactive)

// below: answered compounds
In [3]: df
Out[3]:
                               entry_smiles  label_value
0           C1OCC2[CH2][Hg][S][Hg][CH2]C1O2       no (0)
1                      CCCCCCCCCCCC[S+](C)C       no (0)
2  COc1ccc2c(c[n+](C)c3c4cc5c(cc4ccc23)OCO5)c1OC       no (0)

From here, focus on the item given below.
# lookup: test call for CS(=O)(=O)OCCCNCCCOS(C)(=O)=O
yes (1)

---

- System: BDF1 mice, P388 leukemia ip, median survival T/C
- EXPERIMENTAL PROTOCOL: NCI In Vivo Anticancer Drug Screen. Data for tumor model P388 Leukemia (intraperitoneal) in B6D2F1 (BDF1) mice
- COND: endpoint: median survival time; dose: 100.0 mg/kg/injection; schedule: Q04DX003 (ip); vehicle: saline sonified; higher = longer survival
Inconclusive results and toxic doses are left out.
Measured T/C by item

Solved entries:
>>> df
                                   molecule                              study_system   endpoint_result
0  NC(=S)N/N=C/C(=N\NC(N)=S)C(O)C(O)C(O)CO (configuration not stated)  BDF1 mice, P388 leukemia ip, median survival T/C  100 % of control
1                         O=C(O)c1ccccc1CBr  BDF1 mice, P388 leukemia ip, median survival T/C  104 % of control
2          Nc1nc(CNc2ccccc2)nc(Nc2ccccc2)n1  BDF1 mice, P388 leukemia ip, median survival T/C  100 % of control
3    COc1ccc(C(=O)NN2C(N)=NC(N)=NC2(C)C)cc1  BDF1 mice, P388 leukemia ip, median survival T/C  100 % of control
4  COC(=O)C12CCc3cc(OC)ccc3C1=CC(=O)C2 (configuration not stated)  BDF1 mice, P388 leukemia ip, median survival T/C  100 % of control
5          O=C1NC2(CCCCCC2)C(=O)N1CN1CCOCC1  BDF1 mice, P388 leukemia ip, median survival T/C  104 % of control

Kindly consider the entry below.
Look at this molecule and give its reported T/C. Nc1nnc(N)s1
100 % of control

---

T/C values for the compounds below.
- System: BDF1 mice, P388 leukemia ip, median survival T/C
- EXPERIMENTAL PROTOCOL: NCI In Vivo Anticancer Drug Screen. Data for tumor model P388 Leukemia (intraperitoneal) in B6D2F1 (BDF1) mice
- COND: endpoint: median survival time; dose: 150.0 mg/kg/injection; schedule: Q01DX009 (ip); vehicle: Klucel (hydroxypropylcellulose) (HPC); higher = longer survival
Toxic doses and inconclusive results are not listed.

// known answers, use as guide
In [3]: df
Out[3]:
                                   compound   endpoint_result
0  CCC1OC(=O)CC(O)C(C)C(OC2OC(C)C(O)C(N(C)C)C2O)C(CC=O)CC(C)C(=O)/C=C/C2(C)OC2C1C (centres undefined)   92 % of control
1           c1cncc(-c2ncnc3c2Cc2ccccc2-3)c1  113 % of control

Recorded T/C of Cc1ccc(C2(C(=O)O)CCCC2)cc1 , please.
94 % of control

Quick check: T/C of CC(C)OC(CCCl)c1ccccc1 (centres undefined) ?
109 % of control

---

- Test system: BDF1 mice, P388 leukemia ip, median survival T/C
- EXPERIMENTAL PROTOCOL: NCI In Vivo Anticancer Drug Screen. Data for tumor model P388 Leukemia (intraperitoneal) in B6D2F1 (BDF1) mice
- COND: endpoint: median survival time; dose: 25.0 mg/kg/injection; schedule: Q04DX003 (ip); vehicle: Klucel (hydroxypropylcellulose) (HPC); higher = longer survival
Toxic doses and inconclusive results are not listed.
READOUT LABEL: T/C

>>> df
                         entry_smiles   endpoint_result
0    COC(=O)c1ccc(C(=O)O)[n+]([O-])c1  100 % of control
1  BrCc1c(CBr)c(CBr)c(CBr)c(CBr)c1CBr  109 % of control
2               Cc1c(C#N)c2n(c1C)CCN2   95 % of control

So what's the measured T/C for this one? COc1ccc(C=O)c(Cl)c1OC
100 % of control

Requested read-out: T/C. Entry: Cc1ncc(-c2ccc([N+](=O)[O-])cc2)o1
92 % of control

If you can, please state the reported T/C value of N#Cc1ccc(S(N)(=O)=O)cc1 .
109 % of control

Returns the measured T/C for the input compound. Input: N#CCC(N)=C(C#N)C#N
95 % of control
